Give Ki for every item shown.
# tested.target: BCL-2 (UniProt P10415 1-217, limits assumed)
# Sequence (P10415 1-217 limits assumed): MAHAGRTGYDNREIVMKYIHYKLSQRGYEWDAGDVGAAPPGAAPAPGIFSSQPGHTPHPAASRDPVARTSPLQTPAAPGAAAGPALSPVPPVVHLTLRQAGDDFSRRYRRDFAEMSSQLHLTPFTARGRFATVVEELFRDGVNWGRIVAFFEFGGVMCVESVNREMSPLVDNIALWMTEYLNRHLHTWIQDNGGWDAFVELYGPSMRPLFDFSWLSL
# assay.explanation: Ki table, method not stated
Positions of bridges follow the written chain, without caps; N, C: chain ends. Non-standard residues stand in square brackets, D forms with d. R8 = C=CCCCCCC[C@@](C)(N)C(=O)O; S5 = C=CCCC[C@](C)(N)C(=O)O
Answers are plain numbers, in nM.

Incoming: So what does the record say about Ki for Ac-IAQALR[R8]IGDAFN[S5]YYA-NH2 (staple 7-14; SMILES CC[C@H](C)[C@H](NC(C)=O)C(=O)N[C@@H](C)C(=O)N[C@@H](CCC(N)=O)C(=O)N[C@@H](C)C(=O)N[C@@H](CC(C)C)C(=O)N[C@@H](CCCNC(=N)N)C(=O)N[C@]1(C)CCCCCCC=CCCC[C@@](C)(C(=O)N[C@@H](Cc2ccc(O)cc2)C(=O)N[C@@H](Cc2ccc(O)cc2)C(=O)N[C@@H](C)C(N)=O)NC(=O)[C@H](CC(N)=O)NC(=O)[C@H](Cc2ccccc2)NC(=O)[C@H](C)NC(=O)[C@H](CC(=O)O)NC(=O)CNC(=O)[C@H]([C@@H](C)CC)NC1=O, also called Ac-IAQALR$r8IGDAFN$YYA-NH2) [SEQ ID NO: 1635] ?
Outgoing: 519

Incoming: So what does the record say about Ki for Ac-IAQALR[R8]IGDAFA[S5]YYA-NH2 (staple 7-14; SMILES CC[C@H](C)[C@H](NC(C)=O)C(=O)N[C@@H](C)C(=O)N[C@@H](CCC(N)=O)C(=O)N[C@@H](C)C(=O)N[C@@H](CC(C)C)C(=O)N[C@@H](CCCNC(=N)N)C(=O)N[C@]1(C)CCCCCCC=CCCC[C@@](C)(C(=O)N[C@@H](Cc2ccc(O)cc2)C(=O)N[C@@H](Cc2ccc(O)cc2)C(=O)N[C@@H](C)C(N)=O)NC(=O)[C@H](C)NC(=O)[C@H](Cc2ccccc2)NC(=O)[C@H](C)NC(=O)[C@H](CC(=O)O)NC(=O)CNC(=O)[C@H]([C@@H](C)CC)NC1=O, also called Ac-IAQALR$r8IGDAFA$YYA-NH2) [SEQ ID NO: 1631] ?
Outgoing: 878

// switching to the query binder
Incoming: So what does the record say about Ki for Ac-IWIAQA[hhL]R[R8]IGDAFN[S5]YYA-NH2 (staple 9-16, also called Ac-IWIAQAhhLR$r8IGDAFN$YYA-NH2) [SEQ ID NO: 1688] ?
Outgoing: 231
